Cited source for all entries: BindingDB's records for doi:10.1021/jm1005989

Target: Beta-2 adrenergic receptor (Homo sapiens, UniProt P07550)
Sequence (P07550 whole entry): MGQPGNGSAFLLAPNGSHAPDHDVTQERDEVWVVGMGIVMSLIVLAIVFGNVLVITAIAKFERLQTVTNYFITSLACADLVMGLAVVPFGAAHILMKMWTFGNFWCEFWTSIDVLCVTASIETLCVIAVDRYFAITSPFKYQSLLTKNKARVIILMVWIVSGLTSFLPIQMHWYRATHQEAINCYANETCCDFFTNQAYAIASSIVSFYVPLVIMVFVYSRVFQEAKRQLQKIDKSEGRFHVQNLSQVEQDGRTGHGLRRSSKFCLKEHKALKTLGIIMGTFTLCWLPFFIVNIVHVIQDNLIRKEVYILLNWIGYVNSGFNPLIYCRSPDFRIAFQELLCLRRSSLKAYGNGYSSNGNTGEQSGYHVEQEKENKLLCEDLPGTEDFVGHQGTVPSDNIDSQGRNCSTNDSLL
Experiment: Agonist activity at human recombinant beta2 adrenergic receptor expressed in CHO cells assessed as elevation in cAMP level after 1 hr by flashplate method
parameterMeasured: pEC50
Remember the convention: pEC50 equals -log10 of concentration in molar.

Problem: State measured pEC50 of the compound CC(C)(Cc1cccc(CC(=O)NCc2ccc(Cl)c(Cl)c2)c1)NC[C@H](O)c1ccc(O)c(NS(C)(=O)=O)c1 with Beta-2 adrenergic receptor (Homo sapiens, UniProt P07550).
Result: 10.15
